# experiment.description: in vitro
# condition: monkey, vero
# Description: Selectivity index, ratio of IC50 for African green monkey Vero cells to MIC90 for Mycobacterium tuberculosis H37Rv ATCC 27294 under normoxic condition
property.name: selectivity ratio
Answers are plain numbers.

Summary for this compound, `CO[C@H]1/C=C/O[C@@]2(C)Oc3c(C)c(O)c4c(O)c(c(/C=N/N5CCN(C)CC5)c(O)c4c3C2=O)NC(=O)/C(C)=C\C=C\[C@H](C)[C@H](O)[C@@H](C)[C@@H](O)[C@@H](C)[C@H](OC(C)=O)[C@@H]1C` : selectivity ratio is 2000

###

# experiment.description: in vitro
# condition: monkey, Vero cells
property.name: selectivity ratio
Answers are plain numbers.

* Cc1ccccc1C(=O)/C=C/c1ccc([N+](=O)[O-])o1 | 41

Hi! Can you tell me selectivity ratio for each of these molecules?
1. O=C(/C=C/c1ccc([N+](=O)[O-])o1)c1ccc(-c2ccccc2)cc1
2. O=C(/C=C/c1ccc([N+](=O)[O-])s1)c1ccc(-n2ccnc2)cc1
3. CC(C)(C)c1ccc(C(=O)/C=C/c2ccc([N+](=O)[O-])o2)cc1
4. CC(C)(C)c1ccc(C(=O)/C=C/c2ccc([N+](=O)[O-])s2)cc1
5. COc1ccc(/C=C/C(=O)c2cccc(I)c2)cc1

Response:
1: 25; 2: 225; 3: 284; 4: 454; 5: 20

Hi! Can you tell me selectivity ratio for each of these molecules?
1. O=C(/C=C/c1ccc([N+](=O)[O-])o1)c1ccc(I)cc1
2. COc1ccc(/C=C/C(=O)c2cccc(Br)c2)cc1
3. O=C(/C=C/c1ccc([N+](=O)[O-])o1)c1ccc(N2CCNCC2)cc1

Response:
[166, 11, 359]

Hi! Can you tell me selectivity ratio for each of these molecules?
1. Cc1cccc(C(=O)/C=C/c2ccc([N+](=O)[O-])o2)c1
2. O=C(/C=C/c1ccc([N+](=O)[O-])o1)c1ccc(N2CCOCC2)cc1

Response:
43
123

Hi! Can you tell me selectivity ratio for each of these molecules?
1. O=C(/C=C/c1ccc([N+](=O)[O-])o1)c1ccc(C2CCCCC2)cc1
2. O=C(/C=C/c1ccc([N+](=O)[O-])o1)c1ccc(-n2ccnc2)cc1
3. CCCCc1ccc(C(=O)/C=C/c2ccc([N+](=O)[O-])o2)cc1

Response:
1. 122
2. 94
3. 57

###

# Tested on: Mycobacterium tuberculosis
# experiment.description: microbe, parasite or virus in culture
# Type: functional
# condition: H37Rv ATCC 27294, 168 h
# Description: Antitubercular activity against Mycobacterium tuberculosis H37Rv ATCC 27294 after 7 days under normoxic condition by microplate Alamar blue assay
Note to self: use class 1 only for MIC90 readings below 0.7 µM; a reading exactly at 0.7 µM still gets class 0.

- O=C(/C=C/c1ccc([N+](=O)[O-])o1)c1ccc(N2CCOCC2)cc1: class 0
- O=C(/C=C/c1ccc([N+](=O)[O-])o1)c1ccc(I)cc1: class 1
- O=C(/C=C/c1cccc([N+](=O)[O-])c1)c1ccc(N2CCCCC2)cc1: class 0
- CCCCc1ccc(C(=O)/C=C/c2ccc([N+](=O)[O-])s2)cc1: class 1
- COc1ccc(/C=C/C(=O)c2cccc(Br)c2)cc1: class 0

Request: Would you kindly verify if MIC90 of `O=C(/C=C/c1ccc([N+](=O)[O-])o1)c1ccc(-c2ccccc2)cc1` is strictly less than 0.7 µM?
Response: class 0

Request: Would you kindly verify if MIC90 of `CN(C)c1ccc(/C=C/C(=O)c2ccc(-c3ccccc3)cc2)cc1` is strictly less than 0.7 µM?
Response: class 0

Request: Would you kindly verify if MIC90 of `CC(C)(C)c1ccc(C(=O)/C=C/c2ccco2)cc1` is strictly less than 0.7 µM?
Response: class 0

Request: Would you kindly verify if MIC90 of `CSc1ccc(C(=O)/C=C/c2ccco2)cc1` is strictly less than 0.7 µM?
Response: class 0

###

# System: Mycobacteroides abscessus
# experiment.description: Antimycobacterial activity against Mycobacterium abscessus ATCC 19977 after 7 days under normoxic condition by microplate Alamar blue assay
# Assay type: functional
# condition: ATCC 19977, 168 h
property.name: MIC90

Solved cases below.
• O=C(/C=C/c1ccc([N+](=O)[O-])o1)c1cccc(Br)c1 = > 10 µM
• CC(C)(C)c1ccc(C(=O)/C=C/c2ccc[nH]2)cc1 = > 10 µM

API: the following record is the query input.
Summary for this compound, `COc1ccc(/C=C/C(=O)c2cccc(I)c2)cc1` : MIC90 is > 10 µM

###

# Tested on: Mycobacterium tuberculosis
# experiment.description: microbe, parasite or virus in culture
# Format: functional
# condition: H37Rv ATCC 27294, 168 h
property.name: log10 of MIC90 (log10 of the value in µM)
Values below are the log10 of the recorded MIC90, with µM as the unit.

Solved cases below.
- O=C(/C=C/c1ccc([N+](=O)[O-])o1)c1ccc(N2CCCCC2)cc1: 0.53
- COc1ccc(/C=C/C(=O)c2cccc(I)c2)cc1: 0.69
- O=C(/C=C/c1ccc([N+](=O)[O-])s1)c1ccc(-n2ccnc2)cc1: -0.72
- NNC(=O)c1ccncc1: -0.39
- CO[C@H]1/C=C/O[C@@]2(C)Oc3c(C)c(O)c4c(O)c(c(/C=N/N5CCN(C)CC5)c(O)c4c3C2=O)NC(=O)/C(C)=C\C=C\[C@H](C)[C@H](O)[C@@H](C)[C@@H](O)[C@@H](C)[C@H](OC(C)=O)[C@@H]1C: -1.30
- CC(C)(C)c1ccc(C(=O)/C=C/c2ccc([N+](=O)[O-])s2)cc1: -0.66
- Cc1ccc(C(=O)/C=C/c2ccc([N+](=O)[O-])s2)cc1: 0.27
- CCCCc1ccc(C(=O)/C=C/c2ccc([N+](=O)[O-])o2)cc1: 0.12

Summary for this molecule, `O=C(/C=C/c1ccc([N+](=O)[O-])o1)c1ccc(Br)cc1` : log10 of MIC90 is 0.40

###

# experiment.description: in vitro
# condition: monkey, Vero cells
Consider the following molecules; for each one, report its selectivity ratio.
Numbers only.

Hi! Can you tell me selectivity ratio for each of these molecules?
1. CSc1ccc(C(=O)/C=C/c2ccc([N+](=O)[O-])s2)cc1
2. CSc1ccc(C(=O)/C=C/c2ccc([N+](=O)[O-])o2)cc1
3. O=C(/C=C/c1ccc([N+](=O)[O-])o1)c1cccc(Br)c1

Response:
1: 222; 2: 61; 3: 52

Summary for this molecule, `CCCCc1ccc(C(=O)/C=C/c2ccc([N+](=O)[O-])s2)cc1` : selectivity ratio is 81

###

Consider the following compounds; for each one, report its MIC90.
# Tested on: Mycobacterium tuberculosis
# experiment.description: microbe, parasite or virus in culture
# Type: functional
# condition: H37Rv ATCC 27294, 168 h
One number for each entry, in µM.

Solved cases below.
• CSc1ccc(C(=O)/C=C/c2ccc([N+](=O)[O-])s2)cc1 = 0.45
• O=C(/C=C/c1ccc([N+](=O)[O-])o1)c1ccc(C2CCCCC2)cc1 = 0.81
• Cc1ccccc1C(=O)/C=C/c1ccc([N+](=O)[O-])o1 = 0.57
• O=C(/C=C/c1ccc([N+](=O)[O-])o1)c1ccc(N2CCNCC2)cc1 = 0.27
• O=C(/C=C/c1ccc([N+](=O)[O-])o1)c1ccc(-n2ccnc2)cc1 = 1.05
• Cc1cccc(C(=O)/C=C/c2ccc([N+](=O)[O-])o2)c1 = 1.27
• CSc1ccc(C(=O)/C=C/c2ccc([N+](=O)[O-])o2)cc1 = 0.66
• CC(C)(C)c1ccc(C(=O)/C=C/c2ccc([N+](=O)[O-])o2)cc1 = 0.35

Hi! Can you tell me MIC90 for each of these compounds?
1. O=C(/C=C/c1ccc(Cl)s1)c1ccc(-n2ccnc2)cc1
2. O=C(/C=C/c1ccc([N+](=O)[O-])o1)c1cccc(Br)c1

Response:
[9.29, 1.32]

###

# System: Mycobacterium tuberculosis
# experiment.description: microbe, parasite or virus in culture
# Type: functional
# condition: H37Rv ATCC 27294, 168 h
property.name: MIC90

Hi! Can you tell me MIC90 for each of these compounds?
1. O=C(/C=C/c1ccc([N+](=O)[O-])s1)c1ccc(N2CCOCC2)cc1
2. O=C(/C=C/c1ccc([N+](=O)[O-])o1)c1ccc(N2CCCC2)cc1
3. O=C(/C=C/c1ccc([N+](=O)[O-])s1)c1ccc(C2CCCCC2)cc1

Response:
1. > 10 µM
2. > 10 µM
3. > 10 µM
